- Tested on: KRAS-mutant PDC multicell tumor spheroid viability;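 note: viability read after seven days of drug exposure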
- Measurement Protocol: Anticancer human tumor 521955-158-R2-J5-PDC patient-derived pancreatic carcinoma cell line growth inhibition [KRAS2]
- Run Conditions: second compound 3.16 µM; first compound 0.1 µM; stronger effect = lower value
viability, T/C less than 30% is Met; viability, T/C greater than or equal to 30% is Not met.

Enquiry: Does the reported viability, T/C of CN(C)C/C=C/C(=O)Nc1cc2c(Nc3ccc(F)c(Cl)c3)ncnc2cc1O[C@H]1CCOC1 + C=CC(=O)N1CCN(c2nc(=O)n(-c3c(C)ccnc3C(C)C)c3nc(-c4c(O)cccc4F)c(F)cc23)C(C)C1 stay below 30%?
Return: Not met

Enquiry: Here's an entry: Cn1ncnc1[C@H]1c2n[nH]c(=O)c3cc(F)cc(c23)N[C@@H]1c1ccc(F)cc1 + CC1OCC2(CCN(c3cnc(Sc4ccnc(N)c4Cl)c(N)n3)CC2)C1N . Is its viability, T/C below 30%?
Return: Not met

Enquiry: Take the molecule CCN1CCN(Cc2ccc(Nc3ncc(F)c(-c4cc(F)c5nc(C)n(C(C)C)c5c4)n3)nc2)CC1 + CC1OCC2(CCN(c3cnc(Sc4ccnc(N)c4Cl)c(N)n3)CC2)C1N and say whether its viability, T/C is less than 30%.
Return: Not met

Enquiry: Lab log: compare recorded viability, T/C with 30%; is it strictly lower for CCN1CCN(Cc2ccc(Nc3ncc(F)c(-c4cc(F)c5nc(C)n(C(C)C)c5c4)n3)nc2)CC1 + C=CC(=O)N1CCN(c2nc(=O)n(-c3c(C)ccnc3C(C)C)c3nc(-c4c(O)cccc4F)c(F)cc23)C(C)C1 ?
Return: Not met

Enquiry: Hi there! Is viability, T/C for CC1OCC2(CCN(c3cnc(Sc4ccnc(N)c4Cl)c(N)n3)CC2)C1N (stereo not given) + C=CC(=O)N1CCN(c2nc(=O)n(-c3c(C)ccnc3C(C)C)c3nc(-c4c(O)cccc4F)c(F)cc23)C(C)C1 below 30%, do you know?
Return: Not met

Enquiry: Field: below-cutoff. Rule: recorded viability, T/C strictly less than 30%. Subject: COC(=O)c1ccc2c(C(=Nc3ccc(N(C)C(=O)CN4CCN(C)CC4)cc3)c3ccccc3)c(O)[nH]c2c1 + CC1OCC2(CCN(c3cnc(Sc4ccnc(N)c4Cl)c(N)n3)CC2)C1N
Return: Not met

Enquiry: Item COC(=O)c1ccc2c(C(=Nc3ccc(N(C)C(=O)CN4CCN(C)CC4)cc3)c3ccccc3)c(O)[nH]c2c1 + C=CC(=O)N1CCN(c2nc(OCC3CCCN3C)nc3c2CCN(c2cccc4cccc(C)c24)C3)CC1CC#N : viability, T/C beneath 30%, strictly?
Return: Met

Enquiry: For Cn1nccc1Nc1nccc(-c2cc3c(s2)C(C)(C)N(CCN2CCOCC2)C3=O)n1 + CNCc1ccccc1-c1csc(C(C)Nc2nc(C)nc3cc(OC)c(OC)cc23)c1 , is the recorded viability, T/C below the cut-off of 30%?
Return: Met

Enquiry: Problem: For the molecule CCNC(=O)CC1N=C(c2ccc(Cl)cc2)c2cc(OC)ccc2-n2c(C)nnc21 (stereo not given) + C=CC(=O)N1CCN(c2nc(=O)n(-c3c(C)ccnc3C(C)C)c3nc(-c4c(O)cccc4F)c(F)cc23)C(C)C1 , is viability, T/C under 30%?
Return: Not met

Enquiry: Please state whether viability, T/C is below 30% for COc1cc2nccc(Oc3ccc(NC(=O)C4(C(=O)Nc5ccc(F)cc5)CC4)cc3)c2cc1OC + C=CC(=O)N1CCN(c2nc(OCC3CCCN3C)nc3c2CCN(c2cccc4cccc(C)c24)C3)CC1CC#N
Return: Met

Enquiry: For CCNC(=O)CC1N=C(c2ccc(Cl)cc2)c2cc(OC)ccc2-n2c(C)nnc21 (stereo not given) + C=CC(=O)N1CCN(c2nc(OCC3CCCN3C)nc3c2CCN(c2cccc4cccc(C)c24)C3)CC1CC#N , is the recorded viability, T/C below the cut-off of 30%?
Return: Met

Enquiry: Is 30% strictly greater than the molecule's reported viability, T/C? molecule: CN(C)C/C=C/C(=O)Nc1cc2c(Nc3ccc(F)c(Cl)c3)ncnc2cc1O[C@H]1CCOC1 + CNCc1ccccc1-c1csc(C(C)Nc2nc(C)nc3cc(OC)c(OC)cc23)c1
Return: Met

Enquiry: Quick check: viability, T/C of CC1OCC2(CCN(c3cnc(Sc4ccnc(N)c4Cl)c(N)n3)CC2)C1N (stereo not given) + CNCc1ccccc1-c1csc(C(C)Nc2nc(C)nc3cc(OC)c(OC)cc23)c1 under 30%?
Return: Met

Enquiry: hey, is viability, T/C for COc1cc2nccc(Oc3ccc(NC(=O)C4(C(=O)Nc5ccc(F)cc5)CC4)cc3)c2cc1OC + COc1cc2nc(C)nc(NC(C)c3cc(N)cc(C(F)(F)F)c3)c2cc1OC1CCOC1 lower than 30% or not?
Return: Not met

Enquiry: viability, T/C under 30%? Item: COC(=O)c1ccc2c(C(=Nc3ccc(N(C)C(=O)CN4CCN(C)CC4)cc3)c3ccccc3)c(O)[nH]c2c1 + CNCc1ccccc1-c1csc(C(C)Nc2nc(C)nc3cc(OC)c(OC)cc23)c1
Return: Met

Enquiry: Check if viability, T/C falls below 30% for CN(C)C/C=C/C(=O)Nc1cc2c(Nc3ccc(F)c(Cl)c3)ncnc2cc1O[C@H]1CCOC1 + C=CC(=O)N1CCN(c2nc(OCC3CCCN3C)nc3c2CCN(c2cccc4cccc(C)c24)C3)CC1CC#N .
Return: Met

Enquiry: A record lists CC1COCCN1c1cc(-c2ccnn2C)c2ccnc(-c3ccn[nH]3)c2n1 (stereo not given) + COc1cc2nc(C)nc(NC(C)c3cc(N)cc(C(F)(F)F)c3)c2cc1OC1CCOC1 . Is its viability, T/C below 30%?
Return: Met

Enquiry: Hello, I'm reviewing records and need to know if viability, T/C of CC1(C)CCC(CN2CCN(c3ccc(C(=O)NS(=O)(=O)c4ccc(NCC5CCOCC5)c([N+](=O)[O-])c4)c(Oc4cnc5[nH]ccc5c4)c3)CC2)=C(c2ccc(Cl)cc2)C1 + CC1OCC2(CCN(c3cnc(Sc4ccnc(N)c4Cl)c(N)n3)CC2)C1N is below 30%. Could you check?
Return: Not met

Enquiry: Is the reported viability, T/C for O=C(c1cc(Cc2n[nH]c(=O)c3ccccc23)ccc1F)N1CCN(C(=O)C2CC2)CC1 + C=CC(=O)N1CCN(c2nc(=O)n(-c3c(C)ccnc3C(C)C)c3nc(-c4c(O)cccc4F)c(F)cc23)C(C)C1 strictly below 30%?
Return: Not met

Enquiry: A record lists CC1COCCN1c1cc(-c2ccnn2C)c2ccnc(-c3ccn[nH]3)c2n1 (stereo not given) + C=CC(=O)N1CCN(c2nc(=O)n(-c3c(C)ccnc3C(C)C)c3nc(-c4c(O)cccc4F)c(F)cc23)C(C)C1 . Is its viability, T/C below 30%?
Return: Met
